Measured AUC(0-t) at 24 h of individual entries
- Assay text: AUC (0 to 24 hrs) in Sprague-Dawley rat at 1 mg/kg, iv after 24 hrs by LC-MS/MS analysis
- Format: ADME, organism-based
- Parameters: time < 24 hr, dose 1 mg/kg, route intravenous
- Experimental context: plasma
Where a SMILES comes first, the peptide text is derived from it. [ ]: non-standard residue; d: D form. Arg(Me) = CNC(=N)NCCC[C@H](N)C(=O)O; d4Pal = N[C@H](Cc1ccncc1)C(=O)O; azaGly = NNC(=O)O

- Compound: "CNC(=N)NCCC[C@H](NC(=O)[C@H](CC(C)C)NC(=O)NNC(=O)[C@H](Cc1ccccc1)NC(=O)[C@@H](NC(=O)[C@H](CC(N)=O)NC(=O)[C@@H](Cc1c[nH]c2ccccc12)NC(=O)[C@H](N)Cc1ccc(O)cc1)[C@@H](C)O)C(=O)N[C@@H](Cc1c[nH]c2ccccc12)C(N)=O"
  Readout unit: "ng·h/mL"
  AUC(0-t) at 24 h: 503
- Compound: "CNC(=N)NCCC[C@H](NC(=O)[C@H](CC(C)C)NC(=O)NNC(=O)[C@H](Cc1ccccc1)NC(=O)[C@H](CO)NC(=O)[C@H](CC(N)=O)NC(=O)[C@@H](Cc1ccncc1)NC(=O)[C@H](N)Cc1ccc(O)cc1)C(=O)N[C@@H](Cc1ccccc1)C(N)=O [KISS1-305] (H-[dY][d4Pal]NSF[azaGly]L[Arg(Me)]F-NH2)"
  Readout unit: "ng·h/mL"
  AUC(0-t) at 24 h: 239

----------
- Assay text: Stability of the compound in aqueous solution (JP1) assessed as residual ratio at pH 1.2 up to 1 week by HPLC analysis relative to initial level
- Type: physicochemical
Readout type: remaining at 168 h (%)

- Smiles str: "CNC(=N)NCCC[C@H](NC(=O)[C@H](CC(C)C)NC(=O)NNC(=O)[C@H](Cc1ccccc1)NC(=O)[C@@H](NC(=O)[C@H](CC(N)=O)NC(=O)[C@@H](Cc1c[nH]c2ccccc12)NC(=O)[C@@H](Cc1ccc(O)cc1)NC(C)=O)[C@@H](C)O)C(=O)N[C@@H](Cc1ccccc1)C(N)=O"
  Readout type: "remaining at 168 h"
  Readout unit: "%"
  Reported value: 50.6

----------
Each entry below carries its reported remaining at 336 h.
- Assay text: Stability of the compound in aqueous solution assessed as residual ratio at pH 3 up to 2 weeks by HPLC analysis relative to initial level
- Assay type: physicochemical
Where a SMILES comes first, the peptide text is derived from it. [ ]: non-standard residue; d: D form. Arg(Me) = CNC(=N)NCCC[C@H](N)C(=O)O; d4Pal = N[C@H](Cc1ccncc1)C(=O)O; azaGly = NNC(=O)O

- Compound: "CNC(=N)NCCC[C@H](NC(=O)[C@H](CC(C)C)NC(=O)NNC(=O)[C@H](Cc1ccccc1)NC(=O)[C@@H](NC(=O)[C@H](CC(N)=O)NC(=O)[C@@H](Cc1c[nH]c2ccccc12)NC(=O)[C@H](N)Cc1ccc(O)cc1)[C@@H](C)O)C(=O)N[C@@H](Cc1c[nH]c2ccccc12)C(N)=O"
  Readout unit: "%"
  remaining at 336 h: 98.2
- Compound: "CNC(=N)NCCC[C@H](NC(=O)[C@H](CC(C)C)NC(=O)NNC(=O)[C@H](Cc1ccccc1)NC(=O)[C@@H](NC(=O)[C@H](CC(N)=O)NC(=O)[C@@H](Cc1c[nH]c2ccccc12)NC(=O)[C@@H](Cc1ccc(O)cc1)NC(C)=O)[C@@H](C)O)C(=O)N[C@@H](Cc1ccccc1)C(N)=O"
  Readout unit: "%"
  remaining at 336 h: 95
- Compound: "CNC(=N)NCCC[C@H](NC(=O)[C@H](CC(C)C)NC(=O)NNC(=O)[C@H](Cc1ccccc1)NC(=O)[C@H](CO)NC(=O)[C@H](CC(N)=O)NC(=O)[C@@H](Cc1c[nH]c2ccccc12)NC(=O)[C@H](N)Cc1ccc(O)cc1)C(=O)N[C@@H](Cc1c[nH]c2ccccc12)C(N)=O"
  Readout unit: "%"
  remaining at 336 h: 97.1
- Compound: "CNC(=N)NCCC[C@H](NC(=O)[C@H](CC(C)C)NC(=O)NNC(=O)[C@H](Cc1ccccc1)NC(=O)[C@H](CO)NC(=O)[C@H](CC(N)=O)NC(=O)[C@@H](Cc1ccncc1)NC(=O)[C@H](N)Cc1ccc(O)cc1)C(=O)N[C@@H](Cc1ccccc1)C(N)=O [KISS1-305] (H-[dY][d4Pal]NSF[azaGly]L[Arg(Me)]F-NH2)"
  Readout unit: "%"
  remaining at 336 h: 100

----------
- Study system: KiSS-1 receptor (Homo sapiens)
- Sequence (Q969F8 whole entry): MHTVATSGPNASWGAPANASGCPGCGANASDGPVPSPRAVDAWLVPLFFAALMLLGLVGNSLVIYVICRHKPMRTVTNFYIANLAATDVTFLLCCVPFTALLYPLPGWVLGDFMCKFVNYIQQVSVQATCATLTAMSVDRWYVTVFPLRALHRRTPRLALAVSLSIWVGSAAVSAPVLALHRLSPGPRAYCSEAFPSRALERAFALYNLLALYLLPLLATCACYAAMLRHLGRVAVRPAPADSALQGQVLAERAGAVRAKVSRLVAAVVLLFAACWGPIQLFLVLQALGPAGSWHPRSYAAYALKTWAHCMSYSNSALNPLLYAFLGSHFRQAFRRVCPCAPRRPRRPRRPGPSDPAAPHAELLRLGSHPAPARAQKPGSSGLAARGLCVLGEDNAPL
- Assay text: Displacement of radioligand from human KISS1R transfected in CHO cells
pKi: −log10 of the molar value. Where a SMILES comes first, the peptide text is derived from it. [ ]: non-standard residue; d: D form. Arg(Me) = CNC(=N)NCCC[C@H](N)C(=O)O; d4Pal = N[C@H](Cc1ccncc1)C(=O)O; azaGly = NNC(=O)O

- Compound: "CNC(=N)NCCC[C@H](NC(=O)[C@H](CC(C)C)NC(=O)NNC(=O)[C@H](Cc1ccccc1)NC(=O)[C@H](CO)NC(=O)[C@H](CC(N)=O)NC(=O)[C@@H](Cc1ccncc1)NC(=O)[C@H](N)Cc1ccc(O)cc1)C(=O)N[C@@H](Cc1c[nH]c2ccccc12)C(N)=O"
  Study system: "KiSS-1 receptor (Homo sapiens)"
  pKi: 10.13
- Compound: "CNC(=N)NCCC[C@H](NC(=O)[C@H](CC(C)C)NC(=O)NNC(=O)[C@H](Cc1ccccc1)NC(=O)[C@H](CO)NC(=O)[C@H](CC(N)=O)NC(=O)[C@@H](Cc1ccncc1)NC(=O)[C@H](N)Cc1ccc(O)cc1)C(=O)N[C@@H](Cc1ccccc1)C(N)=O [KISS1-305] (H-[dY][d4Pal]NSF[azaGly]L[Arg(Me)]F-NH2)"
  Study system: "KiSS-1 receptor (Homo sapiens)"
  pKi: 9.96
- Compound: "CNC(=N)NCCC[C@H](NC(=O)[C@H](CC(C)C)NC(=O)NNC(=O)[C@H](Cc1ccccc1)NC(=O)[C@@H](NC(=O)[C@H](CC(N)=O)NC(=O)[C@@H](Cc1c[nH]c2ccccc12)NC(=O)[C@H](N)Cc1ccc(O)cc1)[C@@H](C)O)C(=O)N[C@@H](Cc1c[nH]c2ccccc12)C(N)=O"
  Study system: "KiSS-1 receptor (Homo sapiens)"
  pKi: 10.44
- Compound: "CNC(=N)NCCC[C@H](NC(=O)[C@H](CC(C)C)NC(=O)NNC(=O)[C@H](Cc1ccccc1)NC(=O)[C@@H](NC(=O)[C@H](CC(N)=O)NC(=O)[C@@H](Cc1c[nH]c2ccccc12)NC(=O)[C@@H](Cc1ccc(O)cc1)NC(=O)c1ccccc1)[C@@H](C)O)C(=O)N[C@@H](Cc1c[nH]c2ccccc12)C(N)=O"
  Study system: "KiSS-1 receptor (Homo sapiens)"
  pKi: 10.57

----------
- Assay text: Stability of the compound in aqueous solution (JP1) assessed as residual ratio at pH 1.2 up to 2 weeks by HPLC analysis relative to initial level
- Type: physicochemical
Where a SMILES comes first, the peptide text is derived from it. [ ]: non-standard residue; d: D form. Arg(Me) = CNC(=N)NCCC[C@H](N)C(=O)O; d4Pal = N[C@H](Cc1ccncc1)C(=O)O; azaGly = NNC(=O)O

- Compound: "CNC(=N)NCCC[C@H](NC(=O)[C@H](CC(C)C)NC(=O)NNC(=O)[C@H](Cc1ccccc1)NC(=O)[C@H](CO)NC(=O)[C@H](CC(N)=O)NC(=O)[C@@H](Cc1ccncc1)NC(=O)[C@H](N)Cc1ccc(O)cc1)C(=O)N[C@@H](Cc1ccccc1)C(N)=O [KISS1-305] (H-[dY][d4Pal]NSF[azaGly]L[Arg(Me)]F-NH2)"
  Readout unit: "%"
  remaining at 336 h: 32.8
- Compound: "CNC(=N)NCCC[C@H](NC(=O)[C@H](CC(C)C)NC(=O)NNC(=O)[C@H](Cc1ccccc1)NC(=O)[C@@H](NC(=O)[C@H](CC(N)=O)NC(=O)[C@@H](Cc1c[nH]c2ccccc12)NC(=O)[C@@H](Cc1ccc(O)cc1)NC(C)=O)[C@@H](C)O)C(=O)N[C@@H](Cc1ccccc1)C(N)=O"
  Readout unit: "%"
  remaining at 336 h: 22.3
- Compound: "CNC(=N)NCCC[C@H](NC(=O)[C@H](CC(C)C)NC(=O)NNC(=O)[C@H](Cc1ccccc1)NC(=O)[C@H](CO)NC(=O)[C@H](CC(N)=O)NC(=O)[C@@H](Cc1c[nH]c2ccccc12)NC(=O)[C@H](N)Cc1ccc(O)cc1)C(=O)N[C@@H](Cc1c[nH]c2ccccc12)C(N)=O"
  Readout unit: "%"
  remaining at 336 h: 33.4
- Compound: "CNC(=N)NCCC[C@H](NC(=O)[C@H](CC(C)C)NC(=O)NNC(=O)[C@H](Cc1ccccc1)NC(=O)[C@@H](NC(=O)[C@H](CC(N)=O)NC(=O)[C@@H](Cc1ccncc1)NC(=O)[C@@H](Cc1ccc(O)cc1)NC(C)=O)[C@@H](C)O)C(=O)N[C@@H](Cc1c[nH]c2ccccc12)C(N)=O"
  Readout unit: "%"
  remaining at 336 h: 33
